test system: HCT116: human colon cancer cell line; assay: Growth inhibition (cytotoxicity, WST-8) of HCT116 cells expressing only a low level of microsomal dipeptidase; format: cell-based; details: drug exposure time; 96 hr; read-out: Cytotoxicity (IC50 in nM) HCT116
READOUT LABEL: IC50 (nM)
Respond with the bare value in nM.

Exercise: Can you share its IC50? I mean this compound: C=C1C(n2ccc(NC(=O)CC[C@@H](NC(=O)[C@@H](N)Cc3ccc(-c4ccccc4)cc3)C(=O)O)nc2=O)O[C@H](CO)[C@H]1O (stereo partly shown) [Example 16]
Solution: 1.7

* * *

Overview of reported IC50 across a group of compounds:
system: HCT116: human colon cancer cell line; test: Growth inhibition (cytotoxicity, WST-8) of HCT116 cells expressing only a low level of microsomal dipeptidase; assay type: cell-based; settings: drug exposure time; 24 hr, then drug removed and cells cultured further; read-out: Cytotoxicity (IC50 in nM) HCT116
Counter-ions that a name gives are not always drawn.
Dear colleague, please return just the value in nM, with no unit written.

COMPOUND | IC50 / nM
CCCCCN1C=Nc2c3c(nc4cccc1c24)-c1cc2c(c(=O)n1C3)COC(=O)[C@@]2(CC)OC(=O)CC[C@@H](NC(=O)[C@@H](N)CC1CCCCC1)C(=O)O [Example 49-2, hydrochloride] | 18
CCCCCN1C=Nc2cccc3nc4c(c1c23)Cn1c-4cc2c(c1=O)COC(=O)[C@@]2(CC)OC(=O)CC[C@@H](NC(=O)[C@@H](N)CC(C)C)C(=O)O [Example 49-4, hydrochloride] | 15

Please examine the following record next.
Exercise: // query IC50 value for entry CCc1c2c(nc3ccc(O)cc13)-c1cc3c(c(=O)n1C2)COC(=O)[C@@]3(CC)OC(=O)CC[C@@H](NC(=O)[C@@H](N)Cc1ccccc1)C(=O)O [Example 39, hydrochloride]
Solution: 23

* * *

tested on: HCT116: human colon cancer cell line; assay: Growth inhibition (cytotoxicity, WST-8) of HCT116 cells expressing only a low level of microsomal dipeptidase; format: cell-based; details: drug exposure time; 24 hr, then drug removed and cells cultured further; read-out: Cytotoxicity (IC50 in nM) HCT116
Where a name gives a salt, the structure may show the parent alone.
READOUT LABEL: IC50 (nM)
Numbers only here, please. The scale is nM.

MOLECULE | READOUT LABEL | UNIT OF MEASURE | REPORTED
CCc1c2c(nc3ccc(O)cc13)-c1cc3c(c(=O)n1C2)COC(=O)[C@]3(O)CC [SN 38, reference compound] | IC50 | nM | 3.7
CCCCCN1C=Nc2cccc3nc4c(c1c23)Cn1c-4cc2c(c1=O)COC(=O)[C@@]2(CC)OC(=O)CC[C@H](NC(=O)[C@@H](N)Cc1c[nH]c2ccccc12)C(=O)O [Example 49-1, hydrochloride] | IC50 | nM | 33

Exercise: What IC50 value was documented for this molecule, CC[C@@]1(OC(=O)CC[C@@H](NC(=O)[C@H](N)Cc2c[nH]c3ccccc23)C(=O)O)C(=O)OCc2c1cc1n(c2=O)Cc2cc3ccccc3nc2-1 [Example 31, hydrochloride] ?
Solution: 3

* * *

tested on: HCT116/S5: HCT116 transfected with the human microsomal dipeptidase cDNA; assay: Growth inhibition (cytotoxicity, WST-8) of HCT116/S5 cells expressing a high level of microsomal dipeptidase; assay type: cell-based; settings: drug exposure time; 24 hr, then drug removed and cells cultured further; read-out: Cytotoxicity (IC50 in nM) HCT116/S5
Structures can show the parent of a compound that is named as a salt.
The following compounds are shown together with reported IC50 values.
Field format: number, assumed nM, no unit text.

COMPOUND | READOUT LABEL | UNIT OF MEASURE | REPORTED
CCc1c2c(nc3ccc(O)cc13)-c1cc3c(c(=O)n1C2)COC(=O)[C@]3(O)CC [SN 38, reference compound] | IC50 | nM | 2.2

Exercise: So what does the record say about IC50 for CCc1c2c(nc3ccc(O)cc13)-c1cc3c(c(=O)n1C2)COC(=O)[C@@]3(CC)OC(=O)CC[C@@H](NC(=O)[C@@H](N)Cc1ccccc1)C(=O)O [Example 39, hydrochloride] ?
Solution: 2.8

Exercise: Try this compound next: CCCCCN1C=Nc2c3c(nc4cccc1c24)-c1cc2c(c(=O)n1C3)COC(=O)[C@@]2(CC)OC(=O)C[C@@H](NC(=O)[C@@H](N)CC1CCCCC1)C(=O)O [Example 49-11, hydrochloride]
Solution: 13

Exercise: Same read-out for CCCCCN1C=Nc2cccc3nc4c(c1c23)Cn1c-4cc2c(c1=O)COC(=O)[C@@]2(CC)OC(=O)CC[C@@H](NC(=O)[C@@H](N)Cc1ccccc1)C(=O)O [Example 49-3, hydrochloride] ?
Solution: 2.9

Exercise: Then this compound: CCCCCN1C=Nc2c3c(nc4cccc1c24)-c1cc2c(c(=O)n1C3)COC(=O)[C@@]2(CC)OC(=O)CC[C@@H](NC(=O)[C@@H](N)CC1CCCCC1)C(=O)O [Example 49-2, hydrochloride]
Solution: 2.6

Exercise: Same again, this time with CCCCCN1C=Nc2cccc3nc4c(c1c23)Cn1c-4cc2c(c1=O)COC(=O)[C@@]2(CC)OC(=O)CC[C@H](NC(=O)[C@@H](N)Cc1c[nH]c2ccccc12)C(=O)O [Example 49-1, hydrochloride]
Solution: 3.3

Exercise: // next record CCCCCN1C=Nc2cccc3nc4c(c1c23)Cn1c-4cc2c(c1=O)COC(=O)[C@@]2(CC)OC(=O)CC[C@@H](NC(=O)[C@@H](N)CC(C)C)C(=O)O [Example 49-4, hydrochloride]
Solution: 2.1
